Field: pIC50. Provide a value for each of the compounds that follow.
Please report pIC50 as the negative decimal logarithm of the molar concentration, giving only the number.

query: Param readout= pIC50; system= RfaE (Escherichia coli, UniProt P76658); entry= COc1ccc2sc(CNc3nncc(-c4c(C)cc(NC(=O)CN(C)C)cc4C)n3)nc2c1 ; returns value.
result: 6.72

query: Reported pIC50 for RfaE (Escherichia coli, UniProt P76658), given Oc1ccc2ccccc2c1-c1cnnc(NCc2nc3ccccc3s2)n1 ?
result: 7.20

query: Give recorded pIC50 with RfaE (Escherichia coli, UniProt P76658) for the following compound: NCCSc1ccc2sc(CNc3nncc(-c4c(Cl)cccc4Cl)n3)nc2c1
Sequence (P76658 whole entry): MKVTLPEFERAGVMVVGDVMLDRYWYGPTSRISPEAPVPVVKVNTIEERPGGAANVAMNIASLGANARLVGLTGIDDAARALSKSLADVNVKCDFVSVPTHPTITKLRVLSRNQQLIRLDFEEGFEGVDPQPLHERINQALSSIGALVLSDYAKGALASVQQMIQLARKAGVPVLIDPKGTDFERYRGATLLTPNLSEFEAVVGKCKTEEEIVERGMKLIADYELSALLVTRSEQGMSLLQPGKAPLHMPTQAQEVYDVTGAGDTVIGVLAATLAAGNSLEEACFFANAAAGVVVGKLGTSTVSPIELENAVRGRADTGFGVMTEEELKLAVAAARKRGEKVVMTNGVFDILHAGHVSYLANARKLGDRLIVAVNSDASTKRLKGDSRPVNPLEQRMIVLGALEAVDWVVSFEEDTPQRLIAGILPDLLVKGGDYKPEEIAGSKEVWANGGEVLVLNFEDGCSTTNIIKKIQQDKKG
result: 6.60

query: Short answer please: pIC50, RfaE (Escherichia coli, UniProt P76658), entry Oc1cccc2sc(CNc3nncc(-c4ccccc4C(F)(F)F)n3)nc12
result: 5.25

query: Which measured pIC50 belongs to O=C(O)COc1ccc2sc(CNc3nncc(-c4c(Cl)cccc4Cl)n3)nc2c1 , tested on RfaE (Escherichia coli, UniProt P76658)?
result: 7.72

query: Give pIC50 (RfaE (Escherichia coli, UniProt P76658)) of the following compound: COc1ccc2sc(CNc3nncc(-c4c(Cl)cccc4Cl)n3)nc2c1
result: 6.89

query: Given the entry COc1ccc2sc(CNc3nncc(-c4ccc(N5CCNCC5)cc4Cl)n3)nc2c1 , what pIC50 was observed with RfaE (Escherichia coli, UniProt P76658)?
result: 6.17

query: Given the entry COc1ccc2sc(CNc3nncc(-c4cc(-c5cn[nH]c5)ccc4Cl)n3)nc2c1 , what pIC50 was observed with RfaE (Escherichia coli, UniProt P76658)?
result: 7.31

query: Form entry - test system: RfaE (Escherichia coli, UniProt P76658); read-out: pIC50; compound: CN(C)CCNC(=O)COc1ccc2sc(CNc3nncc(-c4c(Cl)cccc4Cl)n3)nc2c1
result: 6.78

query: Enter reported pIC50 observed with RfaE (Escherichia coli, UniProt P76658) for OCCOc1ccc2sc(CNc3nncc(-c4c(Cl)cccc4Cl)n3)nc2c1
result: 7.74

query: Which measured pIC50 belongs to Cc1cc(NCCN(C)C)cc(C)c1-c1cnnc(NCc2nc3cc(OCCN)ccc3s2)n1 , tested on RfaE (Escherichia coli, UniProt P76658)?
result: 5.85

query: Recall the recorded pIC50 for COc1ccc2ccccc2c1-c1cnnc(NCc2nc3ccccc3s2)n1 with RfaE (Escherichia coli, UniProt P76658) and state it.
result: 6.89

query: Item: COc1cccc(C)c1-c1cnnc(NCc2nc3cccnc3s2)n1 Test system: RfaE (Escherichia coli, UniProt P76658) Read-out: pIC50 Value: ?
result: 5.51

query: Identify the measured pIC50 of COc1cccc(OC)c1-c1cnnc(N(CC(=O)O)Cc2nc3ccccc3s2)n1 for RfaE (Escherichia coli, UniProt P76658).
result: 5.70

query: Hello, I am looking for reported pIC50 with RfaE (Escherichia coli, UniProt P76658) for COc1ccc2sc(CNc3nncc(-c4c(C)cccc4O)n3)nc2c1 . Could you help?
result: 7.16

query: Field: pIC50 (RfaE (Escherichia coli, UniProt P76658)). Entry: COc1ccc2sc(CNc3nncc(-c4cc(-c5ccn[nH]5)ccc4Cl)n3)nc2c1
result: 7.28

query: Form field - read-out: pIC50; system: RfaE (Escherichia coli, UniProt P76658); submitted item: Oc1ccc2sc(CNc3nncc(-c4c(O)ccc5ccccc45)n3)nc2c1
result: 7.70

query: What value of pIC50 on RfaE (Escherichia coli, UniProt P76658) does NC(=O)COc1ccc2sc(CNc3nncc(-c4c(Cl)cccc4Cl)n3)nc2c1 have?
result: 7.17

query: Lab request: please report pIC50 under test system RfaE (Escherichia coli, UniProt P76658) for CC(=O)COc1ccc2sc(CNc3nncc(-c4c(Cl)cccc4Cl)n3)nc2c1
result: 7.11

query: Recorded pIC50 for COc1ccc2sc(CNc3nncc(-c4cc(-c5cn(CCO)nn5)ccc4Cl)n3)nc2c1 with RfaE (Escherichia coli, UniProt P76658), please?
result: 6.59

query: Hello, I am looking for reported pIC50 with RfaE (Escherichia coli, UniProt P76658) for COc1cccc(OC)c1-c1cnnc(NCc2nc3c(s2)CCCC3)n1 . Could you help?
result: 5.72

query: I'm curious: which pIC50 was measured for Cc1nc(CNc2nncc(-c3ccccc3Cl)n2)sc1C tested on RfaE (Escherichia coli, UniProt P76658)?
result: 5.37

query: Record Cc1cccc(O)c1-c1cnnc(NCc2nc3cc(NCc4nccs4)ccc3s2)n1 : what is its pIC50 with RfaE (Escherichia coli, UniProt P76658)?
result: 6.39

query: Param readout= pIC50; system= RfaE (Escherichia coli, UniProt P76658); entry= O=C(COc1ccc2sc(CNc3nncc(-c4c(Cl)cccc4Cl)n3)nc2c1)NCCO ; returns value.
result: 7.33

query: Find pIC50 (RfaE (Escherichia coli, UniProt P76658)) for the entry COc1ccc2sc(CNc3nncc(-c4cc(-c5cccnc5)ccc4Cl)n3)nc2c1
result: 6.82

query: Record lookup: for RfaE (Escherichia coli, UniProt P76658), what pIC50 belongs to COc1ccc2sc(CNc3nncc(-c4c(OC)ccc5ccccc45)n3)nc2c1 ?
result: 7.29
